Attribution: patent US11999758B2

Below: a set of entries, each annotated with reported Emax.
- experimental-system: YAP-TEAD interaction (Homo sapiens, UniProt P28347)
- Construct: expressed in transfected cells; host or cells: HEK293 GripTite 293 MSR (Invitrogen R795-07)
- Sequence (P28347 whole entry, the tested form may be a part): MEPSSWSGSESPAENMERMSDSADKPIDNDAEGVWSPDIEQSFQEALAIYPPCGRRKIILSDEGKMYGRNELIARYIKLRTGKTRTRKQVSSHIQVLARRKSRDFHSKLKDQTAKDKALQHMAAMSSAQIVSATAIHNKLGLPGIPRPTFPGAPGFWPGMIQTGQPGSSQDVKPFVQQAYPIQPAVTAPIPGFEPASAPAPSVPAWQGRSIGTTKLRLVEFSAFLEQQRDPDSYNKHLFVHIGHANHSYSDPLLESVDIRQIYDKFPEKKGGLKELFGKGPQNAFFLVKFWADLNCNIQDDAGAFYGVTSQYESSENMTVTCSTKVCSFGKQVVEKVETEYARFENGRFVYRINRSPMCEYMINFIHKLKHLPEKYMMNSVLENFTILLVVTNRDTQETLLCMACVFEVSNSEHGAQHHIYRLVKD
- protocol-details: Cell-based TEAD-GAL4 transactivation assay (luciferase reporter)
- test-settings: HEK293, 24 h, HEK293 cells transfected with TEAD1-Gal4, YAP mutant (S127A, S397A) and luciferase reporter, compounds 0.1 μM to 30 μM, read-out: TEAD-GAL4 Transactivation activity Max Act
Could you give me the number in %? Just the number is fine.

Illustrative cases are given below, each with its answer.
CCN(/N=C/c1ccc2c(c1)COB2O)c1ncnc2nc(SC)sc12.Cl [Ex83, hydrochloride]; 94
CC1CCC(c2ccc3c(c2)COB3O)=NN1c1ncnc2occc12 (stereo not drawn); 82
COc1cc(C2=NN(c3ncnc4c3ccn4C)C(C)CC2)ccc1B(O)O (stereo not drawn); 88

Okay, next one:
# get_value(readout='Emax', item= COCc1csc2c(N(C)/N=C/c3ccc4c(c3)COB4O)ncnc12 )
83

* * *

- experimental-system: YAP-TEAD interaction (Homo sapiens)
- protocol-details: Cell-based TEAD-GAL4 transactivation assay (luciferase reporter)
- test-settings: HEK293 cells transfected with TEAD1-Gal4, YAP mutant (S127A, S397A) and luciferase reporter; compounds 0.1 μM to 30 μM, 24 h
quantity-name: pIC50
API: returns pIC50 as number; meaning -log10 of concentration in mol/L.

# get_value(readout='pIC50', item= CN(/N=C/c1ccc2c(c1)COB2O)c1ncnc2c1CC(=O)N2C1CCC1 [Ex111] )
5.80

# get_value(readout='pIC50', item= CCN(/N=C/c1ccc2c(c1)COB2O)c1ncnc2occc12 [Ex 43] )
6.38

# get_value(readout='pIC50', item= CCN(/N=C/c1ccc(B(O)O)c(OC)c1)c1ncnc2c(OC)cccc12 [Ex 21] )
5.75

* * *

- experimental-system: YAP-TEAD interaction (Homo sapiens)
- Construct: expressed in transfected cells; host or cells: HEK293 GripTite 293 MSR (Invitrogen R795-07)
- protocol-details: Cell-based TEAD-GAL4 transactivation assay (luciferase reporter)
- test-settings: HEK293, 24 h, HEK293 cells transfected with TEAD1-Gal4, YAP mutant (S127A, S397A) and luciferase reporter, compounds 0.1 μM to 30 μM, read-out: TEAD-GAL4 Transactivation activity Max Act
Short version: Emax at least 80% is criterion met, less is criterion not met.

CCN(/N=C/c1ccc(B(O)O)c(OC)c1)c1ncnc2ncsc12; criterion met
COCCOc1cc(/C=N/N(CC(C)C)C2=NS(=O)(=O)c3ccccc32)ccc1B(O)O; criterion met
CSc1nc2ncnc(N(CC(C)C)/N=C/c3ccc4c(c3)COB4O)c2s1; criterion met
COc1cc(/C=N/N(CC(C)C)C2=NS(=O)(=O)c3ccc(OCCCO)cc32)ccc1B(O)O; criterion met
COc1cc(C2=NN(C3=NS(=O)(=O)c4ccccc43)C(C)CC2)ccc1B(O)O (stereo not drawn); criterion not met

Proceed to the following item.
Say whether CCCn1ccc2c(N(CC)/N=C/c3ccc4c(c3)COB4O)ncnc21 shows Emax of 80% or more.
criterion met

* * *

Below: a set of entries, each annotated with reported Emax.
- experimental-system: YAP-TEAD interaction (Homo sapiens)
- Construct: expressed in transfected cells; host or cells: HEK293 GripTite 293 MSR (Invitrogen R795-07)
- protocol-details: Cell-based TEAD-GAL4 transactivation assay (luciferase reporter)
- test-settings: HEK293, 24 h, HEK293 cells transfected with TEAD1-Gal4, YAP mutant (S127A, S397A) and luciferase reporter, compounds 0.1 μM to 30 μM, read-out: TEAD-GAL4 Transactivation activity Max Act
Could you give me the number in %? Just the number is fine.

Report Emax for CCN(/N=C/c1ccc(B(O)O)c(OC)c1)c1ncnc2c(OC)cccc12 tested on YAP-TEAD interaction (Homo sapiens).
90

Report Emax for COCCN(/N=C/c1ccc2c(c1)COB2O)C1=NS(=O)(=O)c2ccccc21 tested on YAP-TEAD interaction (Homo sapiens).
76

Report Emax for CCOc1cc(/C=N/N(CC(C)C)C2=NS(=O)(=O)c3ccccc32)ccc1B(O)O tested on YAP-TEAD interaction (Homo sapiens).
90

Report Emax for CCN(/N=C/c1ccc2c(c1)COB2O)c1ncnc2nc(N3CCOCC3)sc12 tested on YAP-TEAD interaction (Homo sapiens).
89

Report Emax for CCN(/N=C/c1ccc2c(c1)COB2O)c1ncnc2[nH]ncc12 tested on YAP-TEAD interaction (Homo sapiens).
81

Report Emax for CN(/N=C/c1ccc2c(c1)COB2O)c1ncnc2c(C3CC3)csc12 tested on YAP-TEAD interaction (Homo sapiens).
79

Report Emax for CC1CCC(c2ccc3c(c2)COB3O)=NN1c1ncnc2ccsc12 (stereo not shown) tested on YAP-TEAD interaction (Homo sapiens).
80

* * *

Below: a set of entries, each annotated with reported pIC50.
- experimental-system: YAP-TEAD interaction (Homo sapiens)
- protocol-details: Cell-based TEAD-GAL4 transactivation assay (luciferase reporter)
- test-settings: HEK293 cells transfected with TEAD1-Gal4, YAP mutant (S127A, S397A) and luciferase reporter; compounds 0.1 μM to 30 μM, 24 h
API: returns pIC50 as number; meaning -log10 of concentration in mol/L.

CC1CCC(c2ccc3c(c2)COB3O)=NN1c1ncnc2c3c(sc12)CCCC3 (stereo not drawn) [Ex122]; 6.09
CC(C)CN(/N=C/c1ccc2c(c1)COB2O)C1=NS(=O)(=O)c2ccc(F)cc21 [Ex 28]; 5.56
CN(/N=C/c1ccc2c(c1)COB2O)c1ncnc2c1CCO2 [Ex101]; 6.05
CCCNC(=O)c1csc2c(N(CC)/N=C/c3ccc4c(c3)COB4O)ncnc12 [Ex112]; 5.73
COc1cc(/C=N/N(CC(C)C)C2=NS(=O)(=O)c3cc(C#N)ccc32)ccc1B(O)O [Ex 10]; 5.36

# get_value(readout='pIC50', item= Cc1csc2c(N3N=C(c4ccc5c(c4)COB5O)CCC3C)ncnc12 (stereo not drawn) [Ex118] )
6.57

# get_value(readout='pIC50', item= COCCN(/N=C/c1ccc2c(c1)COB2O)C1=NS(=O)(=O)c2ccccc21 [Ex 24] )
5.28

# get_value(readout='pIC50', item= CN(/N=C/c1ccc2c(c1)COB2O)c1ncnc2c1[nH]c(=O)n2C [Ex98] )
5.88

# get_value(readout='pIC50', item= CN1CCc2c1ncnc2N(C)/N=C/c1ccc2c(c1)COB2O [Ex106] )
5.97

# get_value(readout='pIC50', item= CC1CCC(c2ccc3c(c2)COB3O)=NN1c1ncnc2occc12 (stereo not drawn) [Ex117] )
6.16

# get_value(readout='pIC50', item= CSc1nc2ncnc(N3N=C(c4ccc5c(c4)COB5O)CCC3C)c2s1 (stereo not drawn) [Ex123] )
6.70

# get_value(readout='pIC50', item= COc1cc(OC)c2c(c1)C(N(CC(C)C)/N=C/c1ccc(B(O)O)c(OC)c1)=NS2(=O)=O [Ex 3] )
5.58

# get_value(readout='pIC50', item= COc1cc(C2=NN(c3ncnc4c(OC)cccc34)C(C)CC2)ccc1B(O)O (single isomer, unassigned; isomer 1) [Ex124] )
5.14

# get_value(readout='pIC50', item= COc1ccc2c(c1)C(N(CC(C)C)/N=C/c1ccc(B(O)O)c(OC)c1)=NS2(=O)=O [Ex 2] )
5.64

# get_value(readout='pIC50', item= COc1cc(/C=N/N(CC(C)C)c2ncnc3c(OC)cccc23)ccc1B(O)O [Ex 13] )
5.24

# get_value(readout='pIC50', item= COc1cccc2c(N(CC(C)C)/N=C/c3ccc4c(c3)COB4O)ncnc12 [Ex 32] )
5.80

# get_value(readout='pIC50', item= COCC1CC(n2c(=O)[nH]c3c(N(C)/N=C/c4ccc5c(c4)COB5O)ncnc32)C1 (stereo not drawn) [Ex108] )
5.59

# get_value(readout='pIC50', item= Cc1csc2c(N3N=C(c4ccc5c(c4)COB5O)CCC3C)ncnc12 (single isomer, unassigned; (-)) [Ex120] )
6.30

* * *

- experimental-system: YAP-TEAD interaction (Homo sapiens, UniProt P28347)
- Construct: expressed in transfected cells; host or cells: HEK293 GripTite 293 MSR (Invitrogen R795-07)
- protocol-details: Cell-based TEAD-GAL4 transactivation assay (luciferase reporter)
- test-settings: HEK293, 24 h, HEK293 cells transfected with TEAD1-Gal4, YAP mutant (S127A, S397A) and luciferase reporter, compounds 0.1 μM to 30 μM, read-out: TEAD-GAL4 Transactivation activity Max Act
- Procedure: To identify inhibitors of YAP-TEAD interaction, a transient transactivation assay was carried out on HEK293 cell line (HEK293 GripTite™ 293 MSR (Invitrogen R795-07)) using plasmids containing the full length TEAD1 sequences, the full length YAP mutant (S127A, S397A) and a luciferase gene reporter. […] 24 h later, the luciferase activity was determined after addition of 100 μl of Steady Glo™ luciferase assay system (Promega E2550) according to the manufacturer's directions. […]
quantity-name: Emax (%)
Could you give me the number in %? Just the number is fine.

Illustrative cases are given below, each with its answer.
CCN(/N=C/c1ccc2c(c1)COB2O)c1nc(C)nc2c(C)csc12 [Ex88]; 80
COc1cc(/C=N/N(CC(C)C)c2ncnc3c(OC)cccc23)ccc1B(O)O [Ex 13]; 95

# get_value(readout='Emax', item= CCN(/N=C/c1ccc2c(c1)COB2O)c1ncnc2sccc12 [Ex 40] )
85

# get_value(readout='Emax', item= CC1CCC(c2ccc3c(c2)COB3O)=NN1C1=NS(=O)(=O)c2ccccc21 (stereo not drawn) [Ex 53] )
87

# get_value(readout='Emax', item= COCCN(/N=C/c1ccc2c(c1)COB2O)c1ncnc2c(C)csc12 [Ex94] )
80
